- assay.notes: Plasma concentration in triple transgenic LaFerla mouse at 30 mg/kg, po measured after 3 hrs
- Format: ADME, organism-based
readout.label: concentration at 3 h (nM)
A number alone suffices; assume nM.

concentration at 3 h for `CNc1nc(Nc2ccc(-n3cnc(Cl)c3)c(OC)c2)nc2c1CC[C@H]2c1ccccc1` ?
2100

###

Target sequence: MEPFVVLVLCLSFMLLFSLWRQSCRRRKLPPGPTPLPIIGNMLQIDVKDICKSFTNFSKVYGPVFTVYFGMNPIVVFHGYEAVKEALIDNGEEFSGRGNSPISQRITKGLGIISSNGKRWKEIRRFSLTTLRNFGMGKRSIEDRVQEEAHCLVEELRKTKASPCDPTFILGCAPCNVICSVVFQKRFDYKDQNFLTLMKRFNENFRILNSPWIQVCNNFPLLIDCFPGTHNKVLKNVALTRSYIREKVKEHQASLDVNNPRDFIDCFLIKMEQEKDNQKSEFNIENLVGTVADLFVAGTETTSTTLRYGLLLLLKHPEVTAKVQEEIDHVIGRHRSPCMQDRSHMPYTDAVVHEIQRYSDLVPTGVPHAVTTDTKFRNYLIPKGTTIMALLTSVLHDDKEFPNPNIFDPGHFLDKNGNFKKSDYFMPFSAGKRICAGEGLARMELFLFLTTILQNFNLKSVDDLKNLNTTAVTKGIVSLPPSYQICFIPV
readout.label: pIC50
By convention, pIC50 is the negative base-10 log of a molar concentration.

Return reported pIC50; argument: `CNc1nc(Nc2ccc(-n3cnc(C)n3)c(OC)c2)nc2c1CC[C@H]2c1ccc(F)cc1`
5.35

###

readout.label: pIC50
// pIC50 here means minus log10 of the molar concentration (mol/L)

Param readout = pIC50; param system = Cytochrome P450 2D6 (Homo sapiens, UniProt P10635); param query = `CNc1nc(Nc2ccc(-n3cnc(C)n3)c(OC)c2)nc2c1CC[C@H]2c1ccc(F)cc1` ; response: value
Sequence (P10635 whole entry): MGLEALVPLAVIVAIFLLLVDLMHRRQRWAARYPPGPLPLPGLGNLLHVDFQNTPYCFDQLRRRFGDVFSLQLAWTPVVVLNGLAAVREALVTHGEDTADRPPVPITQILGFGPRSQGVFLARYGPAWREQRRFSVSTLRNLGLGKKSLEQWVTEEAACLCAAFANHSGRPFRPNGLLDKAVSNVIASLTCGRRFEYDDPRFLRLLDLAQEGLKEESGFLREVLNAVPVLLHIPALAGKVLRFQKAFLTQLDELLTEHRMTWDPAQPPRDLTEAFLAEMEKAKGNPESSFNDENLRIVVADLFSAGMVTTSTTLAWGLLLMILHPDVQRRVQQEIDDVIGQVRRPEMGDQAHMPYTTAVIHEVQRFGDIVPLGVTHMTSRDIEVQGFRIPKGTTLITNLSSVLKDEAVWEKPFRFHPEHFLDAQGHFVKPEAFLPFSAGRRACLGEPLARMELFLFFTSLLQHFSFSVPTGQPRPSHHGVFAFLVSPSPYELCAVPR
4.74

###

Target sequence: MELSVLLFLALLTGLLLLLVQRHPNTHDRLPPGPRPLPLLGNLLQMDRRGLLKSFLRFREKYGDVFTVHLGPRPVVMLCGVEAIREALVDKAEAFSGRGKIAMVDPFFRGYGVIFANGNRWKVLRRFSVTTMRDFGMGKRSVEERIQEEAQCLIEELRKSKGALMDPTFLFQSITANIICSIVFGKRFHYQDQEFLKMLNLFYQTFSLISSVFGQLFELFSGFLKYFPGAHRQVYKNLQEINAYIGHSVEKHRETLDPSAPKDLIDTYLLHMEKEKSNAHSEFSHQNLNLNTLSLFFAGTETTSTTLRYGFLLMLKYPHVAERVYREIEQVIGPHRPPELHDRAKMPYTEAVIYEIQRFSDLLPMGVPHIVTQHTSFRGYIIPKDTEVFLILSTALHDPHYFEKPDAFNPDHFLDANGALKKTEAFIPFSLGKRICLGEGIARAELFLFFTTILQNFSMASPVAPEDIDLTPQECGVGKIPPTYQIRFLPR
readout.label: IC50

Which IC50 value belongs to `CNc1nc(Nc2ccc(-n3cnc(C)n3)c(OC)c2)nc2c1CC[C@H]2c1ccc(F)cc1` ?
> 40 µM

###

- assay.notes: Inhibition of amyloid beta (1 to 40) secretion in human H4 cells overexpressing APP incubated for overnight by HTRF analysis
- Assay type: functional, cell-based
readout.label: pIC50
pIC50 here is simply -log10 of the concentration when that concentration is written in mol/L.

// returns reported pIC50 for input `CNc1nc(Nc2ccc(-n3cnc(C)n3)c(OC)c2)nc2c1CC[C@H]2c1ccc(F)cc1`
7.60

###

- assay.notes: Oral bioavailability in Beagle dog incubated for 24 hrs by LC-MS/MS analysis
- Type: ADME, organism-based, Canis lupus familiaris
- recorded.conditions: in vivo
readout.label: bioavailability (%)
Express it in %; write the number only.

Quick one: bioavailability of `CNc1nc(Nc2ccc(-n3cnc(Cl)c3)c(OC)c2)nc2c1CC[C@H]2c1ccccc1` ?
64

###

- measured.target: Solute carrier organic anion transporter family member 1B1 (Homo sapiens)
- Sequence (Q9Y6L6 whole entry): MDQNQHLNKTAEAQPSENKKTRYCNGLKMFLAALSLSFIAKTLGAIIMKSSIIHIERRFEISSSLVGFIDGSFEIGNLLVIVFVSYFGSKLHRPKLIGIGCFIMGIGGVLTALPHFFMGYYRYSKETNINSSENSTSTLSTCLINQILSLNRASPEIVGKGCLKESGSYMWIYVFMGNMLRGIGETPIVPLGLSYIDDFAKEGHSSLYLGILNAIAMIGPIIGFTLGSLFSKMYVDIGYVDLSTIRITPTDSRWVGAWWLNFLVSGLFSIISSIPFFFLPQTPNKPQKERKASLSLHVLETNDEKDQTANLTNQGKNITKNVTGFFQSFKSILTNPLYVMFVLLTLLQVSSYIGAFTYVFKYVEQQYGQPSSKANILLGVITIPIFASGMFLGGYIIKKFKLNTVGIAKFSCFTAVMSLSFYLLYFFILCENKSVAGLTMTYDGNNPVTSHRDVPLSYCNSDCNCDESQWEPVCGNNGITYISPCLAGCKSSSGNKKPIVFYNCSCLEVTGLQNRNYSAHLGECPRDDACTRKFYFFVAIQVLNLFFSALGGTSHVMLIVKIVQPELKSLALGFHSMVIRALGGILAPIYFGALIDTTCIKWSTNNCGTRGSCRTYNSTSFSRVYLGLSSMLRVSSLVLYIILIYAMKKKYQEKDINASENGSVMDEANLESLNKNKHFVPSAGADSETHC
readout.label: IC50 (nM)
Respond with the bare value in nM.

Consider the compound `CNc1nc(Nc2ccc(-n3cnc(Cl)c3)c(OC)c2)nc2c1CC[C@H]2c1ccccc1` and give its measured IC50.
690

Item `CNc1nc(Nc2ccc(-n3cnc(C)n3)c(OC)c2)nc2c1CC[C@H]2c1ccc(F)cc1` has what recorded IC50?
66

###

- measured.target: Cytochrome P450 3A4 (Homo sapiens)
- assay.notes: Time dependent inhibition of CYP3A4 in human liver microsomes assessed as inhibition constant
readout.label: Ki

Value wanted: Ki (Cytochrome P450 3A4 (Homo sapiens)) of entry `CNc1nc(Nc2ccc(-n3cnc(C)n3)c(OC)c2)nc2c1CC[C@H]2c1ccc(F)cc1`
83 µM

###

- measured.target: Cytochrome P450 1A2 (Homo sapiens, UniProt P05177)
- Sequence (P05177 whole entry): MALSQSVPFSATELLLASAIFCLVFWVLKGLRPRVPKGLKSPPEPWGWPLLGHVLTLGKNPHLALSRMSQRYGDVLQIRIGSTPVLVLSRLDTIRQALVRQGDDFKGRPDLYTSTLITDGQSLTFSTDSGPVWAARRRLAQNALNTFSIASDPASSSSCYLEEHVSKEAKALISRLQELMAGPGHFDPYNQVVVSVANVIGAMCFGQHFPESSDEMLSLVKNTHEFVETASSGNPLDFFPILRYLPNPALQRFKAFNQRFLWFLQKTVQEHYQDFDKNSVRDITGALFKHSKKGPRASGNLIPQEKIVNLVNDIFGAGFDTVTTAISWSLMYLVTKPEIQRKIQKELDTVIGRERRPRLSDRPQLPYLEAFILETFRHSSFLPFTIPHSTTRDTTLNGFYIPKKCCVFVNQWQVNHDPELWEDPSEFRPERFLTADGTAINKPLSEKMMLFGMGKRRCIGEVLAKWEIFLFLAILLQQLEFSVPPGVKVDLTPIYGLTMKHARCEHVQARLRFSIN
readout.label: IC50

Can you share its IC50? I mean this compound: `CNc1nc(Nc2ccc(-n3cnc(C)n3)c(OC)c2)nc2c1CC[C@H]2c1ccc(F)cc1`
> 40 µM

###

readout.label: pIC50
// scale note: pIC50 = -log10(conc_M); give the bare number

Any idea what pIC50 came out for `CNc1nc(Nc2ccc(-n3cnc(Cl)c3)c(OC)c2)nc2c1CC[C@H]2c1ccccc1` on UDP-glucuronosyltransferase 1A1 (Homo sapiens)?
5.85

Notebook entry, UDP-glucuronosyltransferase 1A1 (Homo sapiens) assay: pIC50 of `CNc1nc(Nc2ccc(-n3cnc(C)n3)c(OC)c2)nc2c1CC[C@H]2c1ccc(F)cc1` = ?
5.85

###

Please provide measured IC50 for the entries that follow.
- measured.target: Voltage-gated inwardly rectifying potassium channel KCNH2 (Homo sapiens)
- Sequence (Q12809 whole entry): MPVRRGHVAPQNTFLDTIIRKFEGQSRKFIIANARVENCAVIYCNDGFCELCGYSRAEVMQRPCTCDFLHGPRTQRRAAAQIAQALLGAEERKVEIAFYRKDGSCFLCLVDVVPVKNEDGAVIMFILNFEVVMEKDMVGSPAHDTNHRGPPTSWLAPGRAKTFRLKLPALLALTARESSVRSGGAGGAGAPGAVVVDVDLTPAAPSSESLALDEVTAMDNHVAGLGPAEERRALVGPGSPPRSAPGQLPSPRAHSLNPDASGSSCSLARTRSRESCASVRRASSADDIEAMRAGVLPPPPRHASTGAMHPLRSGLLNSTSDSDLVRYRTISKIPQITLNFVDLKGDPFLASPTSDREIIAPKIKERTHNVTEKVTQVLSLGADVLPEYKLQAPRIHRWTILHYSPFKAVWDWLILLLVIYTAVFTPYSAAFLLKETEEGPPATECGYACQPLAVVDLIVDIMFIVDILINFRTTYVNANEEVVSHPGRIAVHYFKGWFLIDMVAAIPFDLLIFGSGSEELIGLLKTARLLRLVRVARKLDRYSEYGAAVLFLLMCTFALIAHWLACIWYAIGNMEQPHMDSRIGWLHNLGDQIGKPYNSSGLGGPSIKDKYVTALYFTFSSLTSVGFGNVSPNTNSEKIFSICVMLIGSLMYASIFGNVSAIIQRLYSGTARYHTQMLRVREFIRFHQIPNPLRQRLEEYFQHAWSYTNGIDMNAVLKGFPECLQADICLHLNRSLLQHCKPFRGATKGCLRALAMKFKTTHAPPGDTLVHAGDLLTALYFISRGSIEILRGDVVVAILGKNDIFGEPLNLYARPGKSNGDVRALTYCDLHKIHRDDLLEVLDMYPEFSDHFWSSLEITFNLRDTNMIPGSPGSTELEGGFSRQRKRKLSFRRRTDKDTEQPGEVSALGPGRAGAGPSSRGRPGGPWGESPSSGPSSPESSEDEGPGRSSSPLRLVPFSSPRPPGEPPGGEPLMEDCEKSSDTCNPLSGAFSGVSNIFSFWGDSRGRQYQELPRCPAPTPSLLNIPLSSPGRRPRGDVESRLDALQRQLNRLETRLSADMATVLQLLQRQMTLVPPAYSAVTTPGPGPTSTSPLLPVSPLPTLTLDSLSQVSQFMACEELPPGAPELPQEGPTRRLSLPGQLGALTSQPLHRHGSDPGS
- assay.notes: Inhibition of human ERG by patch clamp method
Give just the number in µM; leave the unit off.

I have this compound here, `CNc1nc(Nc2ccc(-n3cnc(Cl)c3)c(OC)c2)nc2c1CC[C@H]2c1ccccc1` , and I need its recorded IC50.
0.2

Using the record for `CNc1nc(Nc2ccc(-n3cnc(C)n3)c(OC)c2)nc2c1CC[C@H]2c1ccc(F)cc1` , report its IC50.
1.2

###

readout.label: pIC50
Units for pIC50: none; it is -log10 of a concentration expressed in mol/L.

Look up pIC50 with Cytochrome P450 3A4 (Homo sapiens, UniProt P08684) for this compound: `CNc1nc(Nc2ccc(-n3cnc(C)n3)c(OC)c2)nc2c1CC[C@H]2c1ccc(F)cc1`
Sequence (P08684 whole entry): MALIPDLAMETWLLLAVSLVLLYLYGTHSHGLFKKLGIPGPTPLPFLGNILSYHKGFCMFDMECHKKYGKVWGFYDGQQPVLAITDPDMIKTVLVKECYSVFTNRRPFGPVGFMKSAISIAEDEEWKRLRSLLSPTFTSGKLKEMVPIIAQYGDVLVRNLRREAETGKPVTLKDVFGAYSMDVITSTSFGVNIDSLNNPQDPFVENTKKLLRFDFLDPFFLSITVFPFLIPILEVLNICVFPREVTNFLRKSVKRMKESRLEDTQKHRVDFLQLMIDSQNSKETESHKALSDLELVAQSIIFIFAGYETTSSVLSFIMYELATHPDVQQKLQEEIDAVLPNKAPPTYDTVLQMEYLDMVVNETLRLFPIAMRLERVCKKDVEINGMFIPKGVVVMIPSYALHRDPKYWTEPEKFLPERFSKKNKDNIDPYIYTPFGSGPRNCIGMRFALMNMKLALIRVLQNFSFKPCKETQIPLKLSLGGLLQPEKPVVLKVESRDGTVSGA
6.70

###

- assay.notes: Ratio of drug level in brain to plasma in Harlan Sprague-Dawley rat at 10 mg/kg, po measured after 5 hrs
- Type: ADME, organism-based
- recorded.conditions: read-out: BPR
readout.label: Kp at 5 h
Number only, please.

Form field: reported Kp at 5 h of `CNc1nc(Nc2ccc(-n3cnc(C)n3)c(OC)c2)nc2c1CC[C@H]2c1ccc(F)cc1`
0.23

###

- measured.target: PXR (NR1I2) (Homo sapiens, UniProt O75469)
- Sequence (O75469 whole entry): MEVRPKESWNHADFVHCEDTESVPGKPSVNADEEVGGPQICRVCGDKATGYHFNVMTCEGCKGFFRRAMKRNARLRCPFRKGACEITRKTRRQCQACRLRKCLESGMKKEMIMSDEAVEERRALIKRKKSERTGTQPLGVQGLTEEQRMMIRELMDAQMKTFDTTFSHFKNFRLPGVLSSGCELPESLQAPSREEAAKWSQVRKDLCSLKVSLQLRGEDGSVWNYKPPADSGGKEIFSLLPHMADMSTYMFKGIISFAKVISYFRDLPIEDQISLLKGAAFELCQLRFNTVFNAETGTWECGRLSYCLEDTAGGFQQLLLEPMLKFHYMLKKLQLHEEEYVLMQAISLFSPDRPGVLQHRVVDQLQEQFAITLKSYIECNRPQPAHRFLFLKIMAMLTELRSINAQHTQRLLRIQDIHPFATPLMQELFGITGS
- assay.notes: Transactivation of PXR (unknown origin) assessed as CYP450 induction relative to 10 uM rifampicin
- Assay type: ADME
readout.label: Emax (%)
Field format: number, assumed %, no unit text.

Emax for `CNc1nc(Nc2ccc(-n3cnc(C)n3)c(OC)c2)nc2c1CC[C@H]2c1ccc(F)cc1` ?
36

###

- assay.notes: Plasma concentration in Harlan Sprague-Dawley rat at 10 mg/kg, po measured after 5 hrs
- Assay type: ADME, organism-based
readout.label: concentration at 5 h (µM)
Please give a number only; it is taken to be in µM.

What value of measured concentration at 5 h is listed for `CNc1nc(Nc2ccc(-n3cnc(C)n3)c(OC)c2)nc2c1CC[C@H]2c1ccc(F)cc1` ?
1.4

###

- assay.notes: Plasma exposure (AUC) in rat at 3 mg/kg measured after 24 hrs
readout.label: AUC at 24 h
Put down the number, then write its unit next to it.

Which AUC at 24 h value is on record for `CNc1nc(Nc2ccc(-n3cnc(C)n3)c(OC)c2)nc2c1CC[C@H]2c1ccc(F)cc1` ?
9.7 µM·h
